Tested on: M17-SYNwt cells
protocol summary: α-synuclein cytotoxicity assay (LDH leakage from paraquat-treated M17-SYNwt cells)
Assay type: cell-based, human
assay context: Table 2; inhibition of synuclein toxicity at most effective concentration relative to untreated paraquat cells
quantity name: % inh. (percentage inhibition) (%)
Numbers only, in %.

COc1ccc(OC)c(S(=O)(=O)N2CCN(c3nc(-c4ccccc4)cs3)CC2)c1 [Compound 36]
121
O=S(=O)(c1cccc2nonc12)N1CCN(c2nc(-c3ccc(F)cc3)cs2)CC1 [Compound 74]
41
O=S(=O)(c1ccc2ccccc2c1)N1CCN(c2nc(-c3ccc(Cl)cc3)cs2)CC1 [Compound 75]
84
O=[N+]([O-])c1cccc(-c2csc(N3CCN(S(=O)(=O)c4ccc5c(c4)OCCO5)CC3)n2)c1 [Compound 72]
85
COc1ccc(Cc2csc(N3CCN(S(=O)(=O)c4ccc(OC)cc4)CC3)n2)cc1 [Compound 14]
90

// for each compound in input: emit % inh. (percentage inhibition)
1. COc1ccc(S(=O)(=O)N2CCC(c3nc(Cc4cccc(OC)c4)cs3)CC2)cc1 [Compound 31]
2. COc1ccc(S(=O)(=O)N2CCC(c3nc(-c4ccc(F)cc4)cs3)CC2)cc1 [Compound 48]
3. COc1cccc(Cc2csc(N3CCN(S(=O)(=O)c4ccc(C#N)cc4)CC3)n2)c1 [Compound 29]
4. COc1cccc(Cc2csc(N3CCN(S(=O)(=O)c4ccccn4)CC3)n2)c1 [Compound 21]
5. COC(=O)COc1ccc(S(=O)(=O)N2CCN(c3nc(-c4ccc(C)cc4)cs3)CC2)cc1 [Compound 33]
6. COc1cccc(Cc2csc(N3CCN(S(=O)(=O)c4ccc(F)cc4)CC3)n2)c1 [Compound 30]

Found:
66
90
42
116
21
98

// for each compound in input: emit % inh. (percentage inhibition)
1. O=S(=O)(N1CCCC1)N1CCN(c2nc(-c3ccccc3)cs2)CC1 [Compound 61]
2. COc1ccc(OC)c(S(=O)(=O)N2CCN(c3nc(-c4ccc(Cl)cc4)cs3)CC2)c1 [Compound 37]
3. O=[N+]([O-])c1ccc(-c2csc(N3CCN(S(=O)(=O)c4ccc5c(c4)OCCO5)CC3)n2)cc1 [Compound 71]
4. COc1cccc(Cc2csc(N3CCN(S(=O)(=O)c4ccccc4OC)CC3)n2)c1 [Compound 16]

Found:
127
74
77
76

// for each compound in input: emit % inh. (percentage inhibition)
1. COc1ccc(-c2csc(N3CCN(S(=O)(=O)c4cc(OC)ccc4OC)CC3)n2)cc1 [Compound 39]
2. COc1ccc(S(=O)(=O)N2CCN(Cc3nc(-c4ccc(F)cc4)cs3)CC2)cc1 [Compound 47]
3. O=S(=O)(c1ccc(Cl)s1)N1CCN(c2nc(-c3ccccc3)cs2)CC1 [Compound 56]

Found:
[107, 86, 98]
